Data provenance: the supplement of paper PMC11208160

assay.overview: recombinant barcode read abundance after kanamycin selection (control-corrected) (log10(CPM+1)); higher = more efficient recombination; sequences stand for … in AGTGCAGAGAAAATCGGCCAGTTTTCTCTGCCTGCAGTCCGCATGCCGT…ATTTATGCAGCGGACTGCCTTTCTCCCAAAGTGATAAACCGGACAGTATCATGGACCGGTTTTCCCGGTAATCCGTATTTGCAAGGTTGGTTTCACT; site = the 11-nt target
We use 0.2 as the dividing line for recombinant barcode read abundance (log10): on or above the line is Met, below is Not met.

| residues | group.label |
| --- | --- |
| AAACACAGTTGGGTTCTAACCTGTTGCCTAC [AAACACACTAG_LTGcore_GT_RTGcore_GT] (site AAACACACTAG) (LTG core: GT, RTG core: GT) | Not met |
| GGGAGCCGGTGGGTTCTAACCTGTTGCTGCC [GGGAGCCCTCA_LTGcore_GG_RTGcore_GG] (site GGGAGCCCTCA) (LTG core: GG, RTG core: GG) | Not met |
| ATGCTTTCTTGGGTTCTAACCTGTTGCCTGG [ATGCTTTCTAG_LTGcore_CT_RTGcore_CC] (site ATGCTTTCTAG) (LTG core: CT, RTG core: CC) | Met |
| CGAGCCCCGTGGGTTCTAACCTGTTGCTGCG [CGAGCCCCTCA_LTGcore_CG_RTGcore_CG] (site CGAGCCCCTCA) (LTG core: CG, RTG core: CG) | Met |
| TTATAAACTTGGGTTCTAACCTGTTGCCTCG [TTATAAACTAG_LTGcore_CT_RTGcore_CG] (site TTATAAACTAG) (LTG core: CT, RTG core: CG) | Not met |
| AGTCTTAGATGGGTTCTAACCTGTTGCCATC [AGTCTTACTTG_LTGcore_GA_RTGcore_GA] (site AGTCTTACTTG) (LTG core: GA, RTG core: GA) | Not met |
| GAGCCCACCTGGGTTCTAACCTGTTGCCTAG [GAGCCCACTAG_LTGcore_CC_RTGcore_CT] (site GAGCCCACTAG) (LTG core: CC, RTG core: CT) | Met |
| GGCTCCCCGTGGGTTCTAACCTGTTGCGGAG [GGCTCCCCTCC_LTGcore_CG_RTGcore_CT] (site GGCTCCCCTCC) (LTG core: CG, RTG core: CT) | Not met |
| GTCGCCCCTTGGGTTCTAACCTGTTGCTACT [GTCGCCCCTTA_LTGcore_CT_RTGcore_AG] (site GTCGCCCCTTA) (LTG core: CT, RTG core: AG) | Not met |
| CGGTCCCAATGGGTTCTAACCTGTTGCCAAG [CGGTCCCCTTG_LTGcore_AA_RTGcore_CT] (site CGGTCCCCTTG) (LTG core: AA, RTG core: CT) | Met |

###

assay.overview: recombinant barcode read abundance after kanamycin selection (control-corrected) (log10(CPM+1)); higher = more efficient recombination; sequences stand for … in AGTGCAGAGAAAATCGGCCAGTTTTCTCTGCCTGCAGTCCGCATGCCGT…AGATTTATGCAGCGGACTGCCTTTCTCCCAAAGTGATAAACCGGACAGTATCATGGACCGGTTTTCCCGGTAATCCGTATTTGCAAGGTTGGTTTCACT; site = the 11-nt target
Listed sequences paired with reported recombinant barcode read abundance (log10)
outcome.measure: recombinant barcode read abundance (log10)

| residues | observed.value |
| --- | --- |
| GCGGCTCCTTGGGTTCTAACCTGTTGCAT (site GCGACTCCTAT) | 0.0805 |
| GAGCGCACTTGGGTTCTAACCTGTTGCGG (site GAGCGCACTCT) | 1.51 |
| GGTCATTCTTGGGTTCTAACCTGTTGCCT (site GGTCATTCTAG) | 0.626 |
| CTTTAGTCTTGGGTTCTAACCTGTTGCTA (site CTTTAGTCTTA) | 0.174 |
| AACAATGCTTGGGTTCTAACCTGTTGCCT (site AACAATGCTAG) | 0.713 |
| CGTCGGACTTGGGTTCTAACCTGTTGCAG (site TAGTTTGCTTC) | 0.0182 |
| GAGTAGCCTTGGGTTCTAACCTGTTGCGG (site GAGTTGCCTCC) | 0.204 |
| TCCGAGACTTGGGTTCTAACCTGTTGCCA (site TCCGAGACTCG) | 0.208 |
| GCTTCGGCTTGGGTTCTAACCTGTTGCCT (site GCCTCGGCTAG) | 0.0138 |
| ATGCGAGCTTGGGTTCTAACCTGTTGCCG (site ATGCGAGCTCA) | 0.177 |

###

assay.overview: recombinant UMI read abundance after kanamycin selection (control-corrected) (log10(CPM+1)); higher = more efficient recombination; extreme values may be limits of the assay; sequences stand for … in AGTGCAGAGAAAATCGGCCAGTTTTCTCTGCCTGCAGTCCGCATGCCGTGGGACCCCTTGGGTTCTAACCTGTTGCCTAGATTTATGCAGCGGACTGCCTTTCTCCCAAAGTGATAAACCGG…AGGTTGGTTTCACT; site = the 11-nt donor
outcome.measure: recombinant UMI read abundance (log10)

| residues | outcome.measure | observed.value |
| --- | --- | --- |
| ACACACCCATGGACCGGTTTTCCCGGTAATCCGTATTTGAC (site ACACAACCTGT) | recombinant UMI read abundance (log10) | 0 |
| TCACGGCCATGGACCGGTTTTCCCGGTAATCCGTATTTGGT (site TCACGGCCTAC) | recombinant UMI read abundance (log10) | 0.00583 |
| CGTTCATCATGGACCGGTTTTCCCGGTAATCCGTATTTGTG (site CGTTCATCTCA) | recombinant UMI read abundance (log10) | 0.00491 |
| CATTCGACATGGACCGGTTTTCCCGGTAATCCGTATTTGGG (site CATTCGACTCC) | recombinant UMI read abundance (log10) | 0.00677 |
| GATACTGCATGGACCGGTTTTCCCGGTAATCCGTATTTGCA (site GATACTGCTTG) | recombinant UMI read abundance (log10) | 1.61 |
| GTCGAGTCATGGACCGGTTTTCCCGGTAATCCGTATTTGTT (site GTCGAGTCTAA) | recombinant UMI read abundance (log10) | 2.79 |
| CACGCGCCATGGACCGGTTTTCCCGGTAATCCGTATTTGTG (site CATGCGCCTCA) | recombinant UMI read abundance (log10) | 0 |

###

assay.overview: recombinant UMI read abundance after kanamycin selection (control-corrected) (log10(CPM+1)); higher = more efficient recombination; extreme values may be limits of the assay; sequences stand for … in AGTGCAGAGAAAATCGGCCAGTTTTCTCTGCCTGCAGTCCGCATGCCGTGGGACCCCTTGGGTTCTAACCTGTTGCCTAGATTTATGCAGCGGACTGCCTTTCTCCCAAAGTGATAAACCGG…AGGTTGGTTTCACT; site = the 11-nt donor

| residues | recombinant UMI read abundance (log10) |
| --- | --- |
| CAACATTCATGGACCGGTTTTCCCGGTAATCCGTATTTGCA (site CAACATTCTTG) | 2.5 |
| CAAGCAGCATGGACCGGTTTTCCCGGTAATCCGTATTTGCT (site CAAGCAGCTAC) | 0.0274 |
| CGTACGTCATGGACCGGTTTTCCCGGTAATCCGTATTTGTT (site AGTACGTCTAA) | 0.0741 |
| CAGTCCTCATGGACCGGTTTTCCCGGTAATCCGTATTTGCC (site CATTCCTCTGG) | 0.879 |
| TCAAATTCATGGACCGGTTTTCCCGGTAATCCGTATTTGCC (site TCCAATTCTGG) | 0 |
| CATCTTGCATGGACCGGTTTTCCCGGTAATCCGTATTTGCG (site CATCTTGCTCG) | 0.00609 |
| TGTAAACCATGGACCGGTTTTCCCGGTAATCCGTATTTGAC (site TGTAAACCTGT) | 0 |
| GATTGGACATGGACCGGTTTTCCCGGTAATCCGTATTTGAT (site GATTGGACTCT) | 0.0264 |
| ATAAGGCCATGGACCGGTTTTCCCGGTAATCCGTATTTGTC (site ATAAGGCCTGT) | 0 |

###

assay.overview: recombinant UMI read abundance after kanamycin selection (control-corrected) (log10(CPM+1)); higher = more efficient recombination; extreme values may be limits of the assay; sequences stand for … in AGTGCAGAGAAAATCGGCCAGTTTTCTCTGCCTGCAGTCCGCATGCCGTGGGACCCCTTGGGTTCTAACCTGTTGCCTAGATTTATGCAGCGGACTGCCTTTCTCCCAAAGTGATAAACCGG…AGGTTGGTTTCACT; site = the 11-nt donor
We use 2 as the dividing line for recombinant UMI read abundance (log10): on or above the line is condition met, below is condition not met.

| residues | group.label |
| --- | --- |
| TATGTATCATGGACCGGTTTTCCCGGTAATCCGTATTTGCC (site TATGTATCTGG) | condition met |
| AATTAAGCATGGACCGGTTTTCCCGGTAATCCGTATTTGGA (site AATTAGGCTTC) | condition not met |
| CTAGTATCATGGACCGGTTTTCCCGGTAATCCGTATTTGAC (site CTAGTCTCTGA) | condition not met |
| ATACTGGCATGGACCGGTTTTCCCGGTAATCCGTATTTGTT (site ATACTGGCTAA) | condition not met |
| TAGCCATCATGGACCGGTTTTCCCGGTAATCCGTATTTGGT (site TAGCCCTCTAC) | condition not met |
| CGGGTTCCATGGACCGGTTTTCCCGGTAATCCGTATTTGTT (site CGGGTTCCTAA) | condition not met |
| AGCTGGGCATGGACCGGTTTTCCCGGTAATCCGTATTTGTA (site AGCTGGGCTTA) | condition met |
| AAGGCGACATGGACCGGTTTTCCCGGTAATCCGTATTTGGA (site AAGGCGACTTC) | condition not met |
| GGCAAACCATGGACCGGTTTTCCCGGTAATCCGTATTTGAA (site GGCAACCCTTT) | condition not met |
| GTCAGTGCATGGACCGGTTTTCCCGGTAATCCGTATTTGCA (site GTCAGTGCTTG) | condition met |
| ATTCCGACATGGACCGGTTTTCCCGGTAATCCGTATTTGTG (site ATTCCGACTCA) | condition not met |
| CGCTCAGCATGGACCGGTTTTCCCGGTAATCCGTATTTGGG (site TGCTCAGCTCC) | condition not met |
| ACAGGTGCATGGACCGGTTTTCCCGGTAATCCGTATTTGAT (site TCAGGTGCTAT) | condition not met |
| ATCGAGACATGGACCGGTTTTCCCGGTAATCCGTATTTGGT (site ATAGAGACTAC) | condition not met |
| CCAGGTCCATGGACCGGTTTTCCCGGTAATCCGTATTTGAT (site CCAGGTTCTAT) | condition not met |
| ATCTATGCATGGACCGGTTTTCCCGGTAATCCGTATTTGAC (site ATCTATGCTGT) | condition met |
| CTTTAGACATGGACCGGTTTTCCCGGTAATCCGTATTTGAG (site CCTTAGACTCT) | condition not met |
